# Tested on: HL-60(TB) leukemia
# assay: NCI tumour cell line growth inhibition, 48 h
quantity: log10(TGI) (log10 of the value in µM)
In our notation, the value equals log10 of TGI in µM.

The examples below pair each entry with its known result.
chem smiles	quantity	experimental value
CCCOc1cc2ccccc2cc1C(=O)Nc1nc(NC)c2c(ccc3nccc32)[nH]1	log10(TGI)	-0.21
O=C(O)C(O)(c1ccc(-c2ccccc2)cc1)c1ccc(-c2ccccc2)cc1	log10(TGI)	1.70
CN(C)C(=O)OCc1nc2c(N3CCOCC3)nc(-c3ccccc3)nc2n1C	log10(TGI)	0.29

List reported log10(TGI) for each of these molecules:
1. COC(=O)c1c(C)[nH]c2c1C(=O)C(=O)c1nc(C)c(C)nc1-2
2. CCOC(=O)/C(=C\NC(C)(C)C)c1nc2ccccc2[nH]1
3. CCc1cccc(C(C)C)c1NC(=O)CCl
4. O=c1c2ccccc2[nH]c2c(O)ccc(O)c12
5. c1cc(-c2ccc(-c3nc4ccc(C5=NCCN5)cc4s3)s2)ccc1C1=NCCN1
6. O=C1/C=C/[C@@H](O)[C@@H]2C[C@@H](O)C[C@H]2/C=C/CCC[C@H](CCc2ccc3ncccc3c2)O1
7. COc1ccc(NC(=S)NNC(=O)c2nsc3ccccc23)cc1

[out]
[1.47, 1.53, 1.85, 1.01, 0.32, -0.16, 1.78]
